# target.or.system: Bem1-1, P29366
# Sequence (P29366 55-141): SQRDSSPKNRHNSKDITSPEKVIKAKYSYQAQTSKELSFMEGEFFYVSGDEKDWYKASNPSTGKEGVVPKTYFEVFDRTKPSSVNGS
# protocol.text: SPOT array
# condition.parameters: median of control spots 4282
Quick reference: SPOT intensity of the listed items.
quantity.kind: SPOT intensity

{"columns": ["binder", "numeric.value"],
 "data": [
  ["ERPKRRAPPPVPKKP", 0],
  ["LYEAMPPTLPHRDWK", 0],
  ["AAAPKHAPPPVPNET", 0],
  ["ATKSASPTLPTRRSR", 3],
  ["RKNRAPPQRPRFNRE", 0],
  ["RLPAPPPPPRRGPAP", 0],
  ["RRRRRPHRIERPLSN", 1]
]}
